tested on: U251 CNS; experiment: NCI tumour cell line growth inhibition, 48 h
Quick reference for TGI among some compounds
endpoint.label: TGI (µM)

{"compound": "CCOC(=O)CNC(=O)C(CSC(=O)N(C)O)NC(=O)CCC(N)C(=O)O (stereo unspecified)", "unit.of.measurement": "µM", "result.modifier": ">", "measurement": 2000}
{"compound": "CS[C@@]1(C(=O)Nc2ccc3[nH]nc(-c4ccc(OC(C)C)nc4)c3c2)CCN(CC(=O)N2CC=C(c3ccc(-c4ncn(C)n4)cc3)CC2)C1", "unit.of.measurement": "µM", "result.modifier": ">", "measurement": 100}
{"compound": "Nn1c(N=Nc2c(O)[nH]c3ccccc23)n[nH]c1=S", "unit.of.measurement": "µM", "result.modifier": ">", "measurement": 100}
{"compound": "COc1ccc(C2C(Cl)C(=O)N2NC(=O)c2ccc(N)cc2)cc1OC (stereo unspecified)", "unit.of.measurement": "µM", "result.modifier": "=", "measurement": 7.28}
{"compound": "CCOC(=O)CCc1c(C)[nH]c2c(C)c3c([nH]c4ccc(Cl)cc43)c(C)c2c1=O", "unit.of.measurement": "µM", "result.modifier": "=", "measurement": 43.4}
{"compound": "COC(=O)c1ccc(NCc2cc(O)ccc2O)cc1O", "unit.of.measurement": "µM", "result.modifier": "=", "measurement": 24.2}

====

system: OVCAR-8 ovarian; experiment: NCI tumour cell line growth inhibition, 48 h
Quick reference for TGI among some molecules

{"molecule": "Nc1ccc(C(=O)NN2C(=O)C(Cl)C2c2cccc([N+](=O)[O-])c2)cc1 (stereo not given)", "TGI": "39.3 µM"}
{"molecule": "CCS/C(Nc1ccccc1)=C(\\C#N)C(=O)N/N=C/c1ccc(Cl)cc1Cl", "TGI": "> 100 µM"}
{"molecule": "N#C/C(=C\\c1ccc(O)cc1O)C(N)=O", "TGI": "> 100 µM"}
{"molecule": "COc1cc(/C=C/C(=O)c2ccc(Nc3nc(Nc4ccccc4)nc(Nc4ccc(Cl)cc4)n3)cc2)cc(OC)c1OC", "TGI": "> 32.5 µM"}
{"molecule": "Nn1c(N=Nc2c(O)[nH]c3ccccc23)n[nH]c1=S", "TGI": "> 100 µM"}
{"molecule": "N#CC12Cc3ccc4c(c3-c3cccc(c31)CCN2C(=O)c1ccccc1)OCO4 (stereo not given)", "TGI": "> 100 µM"}
{"molecule": "COC(=O)CNC(=O)Nc1cc(N2C(=O)ON3C2C(C)(C)N(O)C3(C)C)ccc1C (stereo not given)", "TGI": "> 100 µM"}
{"molecule": "O=C1c2ccccc2C(=O)c2c(NC(=O)c3ccc4c5c(ncnc35)-c3ccccc3C4=O)cccc21", "TGI": "> 100 µM"}
{"molecule": "CNC(=O)OCCN1c2ccccc2Sc2ccccc21", "TGI": "> 100 µM"}
{"molecule": "CO[C@@]12CC(=O)/C(=C(O)\\C=C\\c3ccccc3)C(=O)[C@]1(OC)Cc1ccccc1O2", "TGI": "77.3 µM"}

====

tested on: SNB-75 CNS; assay: NCI tumour cell line growth inhibition, 48 h

{"molecule": "CC(C)(C)OC(=O)N/N=C(/N)c1ccccc1", "TGI": "> 100 µM"}
{"molecule": "O=C(N/C(=C/c1ccc(Cl)cc1)c1nc2ccccc2c(=O)n1Nc1ccc([N+](=O)[O-])cc1[N+](=O)[O-])c1ccccc1", "TGI": "> 100 µM"}
{"molecule": "C=C(C)[C@@H]1CC[C@]2(C)[C@H](C=CC3=C4C[C@@](C)(CO)CC[C@]4(C)CC[C@]32C)[C@@]1(C)CCCN", "TGI": "2.97 µM"}
{"molecule": "CC[C@@]1(OC(=O)CN)C(=O)OCc2c1cc1n(c2=O)Cc2cc3c(N)c4c(cc3nc2-1)OCO4", "TGI": "0.824 µM"}
{"molecule": "O=[N+]([O-])c1ccc(-c2ccccc2)c([As](=O)(O)O)c1", "TGI": "> 100 µM"}
{"molecule": "CC(O)=NC(Cc1ccc2ccccc2c1)C(O)=NC(Cc1ccc(Cl)cc1)C(O)=NC(Cc1c[nH]c2ccccc12)C(O)=NC(CO)C(O)=NC(Cc1ccc(O)cc1)C(O)=NC(CCCN=C(N)N)C(O)=NC(CC(C)C)C(O)=NC(CCCN=C(N)N)C(=O)N1CCCC1C(O)=NC(C)C(=N)O (centres undefined)", "TGI": "> 100 µM"}
{"molecule": "CCOC(=O)CNC(=O)C(CSC(=O)N(C)O)NC(=O)CCC(N)C(=O)O (centres undefined)", "TGI": "> 2000 µM"}
{"molecule": "CC(=O)N[C@@H](Cc1ccc(OP(=O)(O)O)cc1)C(=O)N[C@H]1CCC(=O)N2CCC[C@@H](C(=O)NCc3ccc(O)cc3)N2C1=O", "TGI": "> 25 µM"}
{"molecule": "COC(=O)/C(=C\\C(=O)c1ccc(Br)cc1)NN=C(c1ccccc1)c1ccccc1", "TGI": "> 10 µM"}
{"molecule": "NC1=NS(=O)(=O)Nc2nc(-c3cccs3)[nH]c21", "TGI": "> 100 µM"}
{"molecule": "COc1c2ccoc2c(S(=O)(=O)Nc2ccc(Cl)cc2)c2oc(C)cc(=O)c12", "TGI": "76.4 µM"}
{"molecule": "O=C(CCO)OCCCCCC/C=C\\CCCCCC/C=C\\CCCCCCCCOC(=O)CCO", "TGI": "34 µM"}
{"molecule": "CS[C@@]1(C(=O)Nc2ccc3[nH]nc(-c4ccc(OC(C)C)nc4)c3c2)CCN(CC(=O)N2CC=C(c3ccc(-c4ncn(C)n4)cc3)CC2)C1", "TGI": "> 100 µM"}
{"molecule": "Cc1ccc(S(=O)(=O)NCCSS(=O)(=O)c2ccc(C)cc2)cc1", "TGI": "77.2 µM"}
{"molecule": "N#Cc1c(Oc2ccc(F)c(NC(=O)Cc3cccc(C(F)(F)F)c3)c2)ccc2nc(NC(=O)C3CC3)sc12", "TGI": "> 100 µM"}
{"molecule": "O=C1C2Nc3ccccc3SC2C(=O)N1c1cccc([N+](=O)[O-])c1 (centres undefined)", "TGI": "> 100 µM"}
{"molecule": "CCOC(=O)c1cn2c([nH]c3ccccc32)c(C#N)c1=O", "TGI": "> 100 µM"}
{"molecule": "O=C1/C(=C\\c2c(-c3ccccc3)nn(-c3ccccc3)c2O)C(c2ccccc2)=NN1c1ccccc1", "TGI": "> 100 µM"}
{"molecule": "COC(=O)C1=Cc2c(OC)cc(OC)c(OC)c2[C@H](c2cc(OC)c(OC)cc2OC)C1C(=O)OC (some centres undefined)", "TGI": "> 100 µM"}
